Each recorded value in this set is attributed to paper PMC6315506.

Below: a set of entries, each annotated with reported Cell Viability.
- Tested on: A549 cells
- conditions: 10 µM
metric_name: Cell Viability (%)

CN(C)Cc1ccc(-c2cc3cc(Br)ccc3nc2OCc2ccc(-c3ccccc3)cc2)cc1 [SYL1690]: 80.30
CN1CCN(Cc2ccc(-c3cc4cc(Br)ccc4nc3OCc3cccc4ccccc34)cc2)CC1 [SYL1670]: 82.37
CN(C)Cc1cccc(-c2cc3cc(Br)ccc3nc2OCc2cccc(F)c2)c1 [SYL1666]: 81.28
COc1nc2ccc(Br)cc2cc1C(O)(Cc1cccc(F)c1)c1ccccc1CN(C)C (stereo not drawn) [SYL1649]: 81.62
CN(C)Cc1ccc(-c2cc3cc(Br)ccc3nc2OCc2cccc3ccccc23)cc1 [SYL1665]: 82.87
CN(C)Cc1cccc(-c2cc3cc(Br)ccc3nc2OCCc2cccc3ccccc23)c1 [SYL1664]: 84.59
CC(=NOCCN(C)C)c1cc2ccccc2nc1Oc1cccc2ccccc12 [SYL1626]: 86.91
CN(C)Cc1cccc(-c2cc3cc(Br)ccc3nc2Nc2cccc3ccccc23)c1 [SYL1656]: 77.79
CNCCc1ccc(-c2cc3cc(Br)ccc3nc2OCc2cccc3ccccc23)cc1 [SYL1672]: 2.06
